System: Polio 2
Assay: microbe, parasite or virus in culture
Type: cell-based, poliovirus
Conditions: Enterovirus C, HeLa, read-out: Polio 2 MIC
Threshold-based label: MIC under 2 µg/mL gives yes (1), MIC not under 2 µg/mL gives no (0).

Cc1cc(CCCCCOc2ccc(C3=NCCO3)c(C)c2C)on1 [Example 79] :: no (0)
Cc1cc(CCCCCOc2ccc(C3=NCCO3)cc2Br)on1 [Example 44] :: yes (1)
CCc1cc(C2=NCCO2)ccc1OCCCCCc1cc(C)no1 [Example 60] :: yes (1)
Cc1cc(CCCCCOc2ccc(C3=NC(C)CO3)c(Cl)c2)on1 (stereo not shown) [Example 77] :: yes (1)
CCC(=O)Nc1cc(C2=NCCO2)ccc1OCCCCCc1cc(C)no1 [Example 102] :: no (0)
Cc1cc(CCCCCCCOc2ccc(C3=NCCO3)cc2Cl)on1 [13(c)] :: yes (1)
Cc1cc(CCCCCOc2c(Cl)cc(-c3cnco3)cc2Cl)on1 [Example 98] :: no (0)
Cc1cc(CCCCCCc2c(Cl)cc(C3=NCCO3)cc2Cl)on1 [163(b)] :: yes (1)
Cc1cc(CCCCCCOc2c(Cl)cc(C3=NCCO3)cc2Cl)on1 [Example 106] :: yes (1)
Cc1cc(CCCCCOc2c(C)cc(-c3cocn3)cc2C)on1 [Example 144] :: no (0)
Cc1cc(CCCOc2c(Cl)cc(C3=NCCO3)cc2Cl)on1 [Example 115] :: no (0)
Cc1cc(CCCCCOc2ccc(C3=NCCCO3)cc2)on1 [Example 95] :: yes (1)
Cc1cc(CCCCCCCOc2ccc(C3=NCCO3)cc2)on1 [Example 1(c)] :: yes (1)
Cc1cc(CCCCCOc2c(Cl)cc(C(=O)NCCCl)cc2Br)on1 [152(c)] :: no (0)
Cc1cc(CCCCCOc2ccc(-c3ncco3)cc2)on1 [Example 88] :: yes (1)
